pIC50: −log10 of the molar value.
Listing of pIC50 toward Nitric oxide synthase, inducible (Homo sapiens), each taken from a published source.
metric.name: pIC50

>  <compound>
CCOC(=O)N1CCC(Nc2ccccn2)CC1

>  <pIC50>
4.89

$$$$
>  <compound>
NC1=NCCCS1

>  <pIC50>
5.54

$$$$
>  <compound>
NCCC1CCCCC(N)=N1 (stereo not drawn)

>  <pIC50>
6.15

$$$$
>  <compound>
CC(=N)NCCCSC[C@H](N)C(=O)O

>  <pIC50>
4.21

$$$$
>  <compound>
CCSC(=N)N

>  <pIC50>
6.80

$$$$
>  <compound>
CCC1CN=C(N)C1C (stereo not drawn)

>  <pIC50>
6.03

$$$$
>  <compound>
CC1CN=C(N)C1 (stereo not drawn)

>  <pIC50>
6.70

$$$$
>  <compound>
CCCC1CC(N)=NC1CC (stereo not drawn)

>  <pIC50>
4.99

$$$$
>  <compound>
CC1CCN=C(N)C1 (stereo not drawn)

>  <pIC50>
7.00

$$$$
>  <compound>
COc1ccnc(CSc2nc3ccncc3[nH]2)c1

>  <pIC50>
4.31

$$$$

A = NC1=NC(CC[N+](=O)[O-])CCCC1 (stereo not drawn)
B = NC1=NC(C2CCCCC2)CCC1 (stereo not drawn)
C = COc1ccc(N)c(C2=NN(C(=O)C3CCCCC3)C(C)(C)S2)c1
Please produce an ascending ranking of these compounds based on pIC50. Sort and list the labels as requested.
C, B, A

* * *

Listing of IC50 toward Nitric oxide synthase, inducible (Homo sapiens), each taken from a published source.
metric.name: IC50 (µM)

Reference set, count: 2
>  <smiles.representation>
O=c1oc2ccc(Cl)cc2n1CN1CCCCC1

>  <metric.name>
IC50

>  <unit>
µM

>  <value.measured>
1.5

$$$$
>  <smiles.representation>
CC(C)C[C@H](NC(=O)/C=C/c1ccc(Cl)c(Cl)c1)C(=O)O

>  <metric.name>
IC50

>  <unit>
µM

>  <value.measured>
0.765

$$$$

A = CNCCOc1ccc2c(c1)N=C(N)[C@@H]1CCC[C@H]21
B = COc1ccnc(CSC)c1
Kindly identify which of A and B has the larger recorded IC50 value. Answer by quoting the chosen item's label.
A
(A: 3.9 µM, B: 0.155 µM)

* * *

pIC50: −log10 of the molar value.
Listing of pIC50 toward Nitric oxide synthase, inducible (Homo sapiens), each taken from a published source.
metric.name: pIC50

Reference set, count: 4
>  <compound>
N=C(Nc1ccc2sc(NCCN3CCOCC3)nc2c1)c1cccs1

>  <system.under.test>
Nitric oxide synthase, inducible (Homo sapiens)
Sequence (P35228 whole entry): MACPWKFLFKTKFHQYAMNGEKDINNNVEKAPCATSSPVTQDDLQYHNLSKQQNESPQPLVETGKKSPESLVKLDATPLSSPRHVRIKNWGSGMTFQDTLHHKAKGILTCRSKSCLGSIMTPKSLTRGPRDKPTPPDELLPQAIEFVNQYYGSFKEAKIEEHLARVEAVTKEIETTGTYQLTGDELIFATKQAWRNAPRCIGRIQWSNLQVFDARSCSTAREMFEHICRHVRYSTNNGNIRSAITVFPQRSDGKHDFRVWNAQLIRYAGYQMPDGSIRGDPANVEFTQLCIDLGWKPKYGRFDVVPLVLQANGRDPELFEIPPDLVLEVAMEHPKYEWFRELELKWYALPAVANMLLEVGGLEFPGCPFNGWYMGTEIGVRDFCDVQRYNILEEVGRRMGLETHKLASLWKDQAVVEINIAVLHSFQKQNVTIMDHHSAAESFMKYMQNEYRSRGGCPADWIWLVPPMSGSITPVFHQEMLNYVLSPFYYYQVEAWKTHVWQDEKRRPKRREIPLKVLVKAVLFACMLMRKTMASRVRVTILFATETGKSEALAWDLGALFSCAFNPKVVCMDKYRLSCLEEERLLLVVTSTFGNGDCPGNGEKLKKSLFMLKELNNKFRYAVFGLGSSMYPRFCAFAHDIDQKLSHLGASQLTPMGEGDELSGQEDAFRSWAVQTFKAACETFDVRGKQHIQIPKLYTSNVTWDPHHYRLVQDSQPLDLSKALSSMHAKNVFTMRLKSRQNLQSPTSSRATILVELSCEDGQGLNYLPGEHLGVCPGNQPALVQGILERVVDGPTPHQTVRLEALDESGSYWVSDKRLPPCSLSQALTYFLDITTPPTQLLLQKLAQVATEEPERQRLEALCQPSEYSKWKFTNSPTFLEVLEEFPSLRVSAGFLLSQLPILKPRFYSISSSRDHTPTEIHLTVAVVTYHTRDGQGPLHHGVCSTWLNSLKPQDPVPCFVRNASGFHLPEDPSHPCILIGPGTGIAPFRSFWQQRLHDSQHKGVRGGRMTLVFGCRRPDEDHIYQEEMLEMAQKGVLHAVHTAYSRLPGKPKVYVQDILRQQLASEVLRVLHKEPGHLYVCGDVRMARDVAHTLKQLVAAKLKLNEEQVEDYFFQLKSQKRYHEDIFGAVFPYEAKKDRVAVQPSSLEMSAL

>  <pIC50>
3.85

$$$$
>  <compound>
CC(=N)NCC(F)(F)CCC(N)C(=O)O (centres undefined)

>  <system.under.test>
Nitric oxide synthase, inducible (Homo sapiens)

>  <pIC50>
4.67

$$$$
>  <compound>
CC1CSCCC(N)=N1 (centres undefined)

>  <system.under.test>
Nitric oxide synthase, inducible (Homo sapiens)

>  <pIC50>
6.09

$$$$
>  <compound>
NC1=NCNc2ccccc21

>  <system.under.test>
Nitric oxide synthase, inducible (Homo sapiens)

>  <pIC50>
4.40

$$$$

I = CCCC1CSCCC(N)=N1 (centres undefined)
II = NC1=N[C@H]2CCCC[C@@H]2CC1
III = NC1=NC(Cc2ccccc2)C(C(F)(F)F)C1 (stereo in doubt; 17)
IV = CCN[C@H]1CC[C@H](c2c[nH]c3ccc(NC(=N)c4cccs4)cc32)CC1
Please give the order of these compounds when sorted by pIC50, largest value leading. Sort and list the labels as requested.
I, II, III, IV
(I: 6.54, II: 6.28, III: 4.66, IV: 3.81)

* * *

Listing of IC50 toward UniProt:P35228, each taken from a published source.
metric.name: IC50 (µM)

>  <smiles.representation>
NC1=Nc2ccc([N+](=O)[O-])cc2[C@H]2CCC[C@@H]12

>  <system.under.test>
UniProt:P35228

>  <value.measured>
15

$$$$

P = CCC[C@@H](CCN=C(N)SC)[C@H](N)C(=O)O
Q = COCCOc1ccnc2[nH]c(CCc3cc(OC)ccn3)nc12
R = COc1ccnc(NC2CCN(C(=O)c3ccc(C#N)nc3)CC2)c1
S = Cc1cnc(N)cc1C
T = COc1ccc2c(c1)[C@H]1CCC[C@H]1C(N)=N2
Please give the order of these compounds when sorted by IC50, largest value leading. Sort and list the labels as requested.
P, T, S, Q, R

* * *

pIC50: −log10 of the molar value.
Listing of pIC50 toward Nitric oxide synthase, inducible (Homo sapiens), each taken from a published source.
metric.name: pIC50

I = Cc1cc(N)nc(C(C)C)c1
II = CC(=N)NCCCC[C@@H](N)C(=O)O
Kindly identify which of I and II has the larger recorded pIC50 value. Answer by quoting the chosen item's label.
I
(I: 6.96, II: 5.80)

P = NC1=NC(c2ccccc2)CCCC1 (stereo not given)
Q = CCCCC[C@H]1NC(=N)C[C@H]1C (single isomer, unassigned)
Pick one: P or Q . Which one has the lower reported pIC50? Answer by quoting the chosen item's label.
P
(P: 4.85, Q: 5.35)

P = NC1=Nc2ccc(Br)cc2[C@H]2CCC[C@@H]12
Q = Nc1nccc2c1CCCC2
Kindly identify which of P and Q has the larger recorded pIC50 value. Answer by quoting the chosen item's label.
P
(P: 4.85, Q: 4.54)

1 = CC(=N)NCCCCCC(N)C(=O)O (stereo not given)
2 = CCCCCC1N=C(N)CC1C(F)(F)F (stereo in doubt; 13)
Kindly identify which of 1 and 2 has the larger recorded pIC50 value. Answer by quoting the chosen item's label.
2

I = CN(Cc1ccccc1)Cn1c(=O)oc2ccc(Cl)cc21
II = COc1ccnc(CCc2nc3c(OCCc4ccccc4)ccnc3[nH]2)c1
Pick one: I or II . Which one has the lower reported pIC50? Answer by quoting the chosen item's label.
I

1 = CC1N=C(N)c2ccccc2N1 (stereo not given)
2 = O=C(/C=C/c1ccc(Cl)c(Cl)c1)N[C@@H](Cc1ccc(F)cc1)C(=O)O
Pick one: 1 or 2 . Which one has the lower reported pIC50? Answer by quoting the chosen item's label.
1
(1: 5.01, 2: 6.00)

P = NC1=NCCOCC1
Q = NC1=Nc2cc(CCCNCc3cccc(Cl)c3)ccc2[C@H]2CCC[C@@]12F
Kindly identify which of P and Q has the larger recorded pIC50 value. Answer by quoting the chosen item's label.
Q
(Q: 5.66, P: 4.85)

I = NC1=NC2(CCN(C(=O)c3ccsc3)CC2)Nc2cccc(F)c21
II = O=c1oc2ccc(Cl)cc2n1CN1CCOCC1
Pick one: I or II . Which one has the lower reported pIC50? Answer by quoting the chosen item's label.
II

* * *

pIC50: −log10 of the molar value.
Listing of pIC50 toward Nitric oxide synthase, inducible (Homo sapiens, UniProt P35228), each taken from a published source.
metric.name: pIC50

Reference set, count: 3
>  <molecule>
CC1CCN=C1N (stereo not given)

>  <pIC50>
4.95

$$$$
>  <molecule>
CCCCC[C@H]1N=C(N)[C@H](O)[C@H]1C

>  <pIC50>
5.74

$$$$
>  <molecule>
CCOC(=O)N1CCC2(CC1)N=C(N)c1c(F)cccc1N2

>  <pIC50>
7.46

$$$$

1 = CC1(C)N=C(N)c2ccccc2N1
2 = NC1=NC(c2ccc(F)cc2)Nc2cccc(F)c21 (stereo not given)
3 = CCc1c(C)ccnc1N
4 = CCC1(C)N=C(N)c2ccccc2N1 (stereo not given)
Please give the order of these molecules when sorted by pIC50, largest value leading. Sort and list the labels as requested.
2, 3, 4, 1

a = NC1=Nc2c(cc(Cl)c(F)c2F)[C@H]2CCC[C@@H]12
b = Cc1ccnc(N)c1N
c = NC1=Nc2cc(CCNCc3cccc(Cl)c3)c(Cl)cc2[C@H]2CCC[C@@H]12
d = CC1CC(N)=NCCS1 (stereo not given)
e = C[C@@H]1CC(N)=N[C@@H]2CCCCC[C@H]12
Please produce an ascending ranking of these molecules based on pIC50. Sort and list the labels as requested.
a, d, c, e, b
(a: 4.11, d: 5.52, c: 5.80, e: 6.07, b: 7.23)

* * *

pIC50: −log10 of the molar value.
Listing of pIC50 toward Nitric oxide synthase, inducible (Homo sapiens, UniProt P35228), each taken from a published source.
metric.name: pIC50

>  <compound>
CSCCOC(=O)N1CCC2(CC1)N=C(N)c1c(F)cccc1N2

>  <pIC50>
7.41

$$$$
>  <compound>
NC1=NC(C2CCCC2)Nc2ccccc21 (centres undefined)

>  <pIC50>
5.35

$$$$
>  <compound>
N=C1CCCCN1

>  <pIC50>
6.00

$$$$
>  <compound>
Cc1cc(C)nc(N)c1

>  <pIC50>
7.35

$$$$
>  <compound>
CC(=N)NCC[S+]([O-])C[C@@H](N)C(=O)O (some centres undefined)

>  <pIC50>
5.10

$$$$

I = NC1=Nc2ccc(F)cc2[C@H]2CCC[C@@H]12
II = Cc1cccnc1N
III = CCSC(=N)Nc1ccc2nc(N)sc2c1
IV = N#Cc1ccc2oc(O)nc2c1
Please give the order of these compounds when sorted by pIC50, largest value leading. Sort and list the labels as requested.
II, I, IV, III

P = CCC(CC)CC1CCCCC(N)=N1 (centres undefined)
Q = CC(=N)NCCCC[C@H](N)C(=O)O
Kindly identify which of P and Q has the larger recorded pIC50 value. Answer by quoting the chosen item's label.
P
(P: 5.68, Q: 5.34)

P = CC1CC(N)=NC1Cc1ccccc1 (stereo in doubt; 11)
Q = Cc1cc(N)nc(CCCc2ccccc2)c1
Kindly identify which of P and Q has the larger recorded pIC50 value. Answer by quoting the chosen item's label.
P
(P: 5.52, Q: 4.90)

A = COc1ccnc(NC2CCN(C(=O)c3ccc(Cl)cc3)CC2)c1
B = N=C(Nc1ccc2nc(NC3CCN(Cc4ccc(F)cc4)CC3)sc2c1)c1cccs1
C = CC(=N)NC[C@@H](F)CC[C@@H](N)C(=O)O
D = C[C@@H]1O[C@@H](O[C@H]2[C@H](O)C[C@H](c3ccc4c(c3O)C(=O)C3=C(C4=O)[C@@]4(O)C(=O)C[C@](C)(O)C[C@@]4(O)C=C3)O[C@@H]2C)C=CC1=O
E = CC1CCCN=C1N (centres undefined)
Please produce an ascending ranking of these compounds based on pIC50. Sort and list the labels as requested.
D, C, B, E, A
